The measured values listed here are drawn from paper PMC9884426.

Procedure details: Plasma pharmacokinetics of oral NMP by LCMSMS
Assay type: in vivo, human
Assay setup: human, plasma, po, 300 mg, oral 300 mg; average of N = 3 profiles; plasma; read-out: Cmax, Average
Reported property: Cmax (ng/mL)
Quick note: give the figure in ng/mL, leave out the unit.

# Cmax lookup, item "CN1CCCC1=O" 8060

* * *

Procedure details: Plasma pharmacokinetics of oral NMP by LCMSMS
Format: in vivo, human
Assay setup: human, plasma, po, 800 mg, oral 800 mg; patient MON-11 occasion 6; plasma; read-out: AUC
Reported property: AUC (ng·h/mL)
Dear colleague, please return just the value in ng·h/mL, with no unit written.

Please give the measured AUC for this compound: CN1CCCC1=O [NMP, N-methyl-2-pyrrolidone] 90300

* * *

Procedure details: Plasma pharmacokinetics of oral NMP by LCMSMS
Format: in vivo, human
Assay setup: human, plasma, po, 50 mg, oral 50 mg; individual profiles, patient RMH-01 occasions 1-5; plasma; read-out: Tmax
Reported property: Tmax (min)
Numbers only; they are read as min.

For "CN1CCCC1=O" , what is its reported Tmax? 30

* * *

Procedure details: Plasma pharmacokinetics of oral NMP by LCMSMS
Assay type: in vivo, human
Assay setup: human, plasma, po, 700 mg, oral 700 mg; patient MON-11 occasion 5; plasma; read-out: Half-life (converted)
Reported property: half-life
I'd appreciate it if you wrote the number followed by its unit.

I have this compound here, "CN1CCCC1=O" , and I need its recorded half-life. 2.35 h

* * *

Procedure details: Plasma pharmacokinetics of oral NMP by LCMSMS
Format: in vivo, human
Assay setup: human, plasma, po, 700 mg, oral 700 mg; patient MON-11 occasion 5; plasma; read-out: Tmax
Reported property: Tmax

// lookup Tmax for "CN1CCCC1=O" 30 min

* * *

Procedure details: Plasma pharmacokinetics of oral NMP by LCMSMS
Format: in vivo, human
Assay setup: human, plasma, po, 400 mg, oral 400 mg; individual profiles (MON-11 occasion 2, MON-12); plasma; read-out: Tmax
Reported property: Tmax (min)
Write it as a number; the unit min goes unstated.

Which measured Tmax value corresponds to CN1CCCC1=O [NMP, N-methyl-2-pyrrolidone] ? 30

* * *

Procedure details: Plasma pharmacokinetics of oral NMP by LCMSMS
Format: in vivo, human
Assay setup: human, plasma, po, 100 mg, oral 100 mg; individual profiles, patient RMH-02 occasions 1-5; plasma; read-out: AUC
Reported property: AUC

Need AUC, item "CN1CCCC1=O" 6970 ng·h/mL

* * *

Procedure details: Plasma pharmacokinetics of oral NMP by LCMSMS
Assay type: in vivo, human
Assay setup: human, plasma, po, 800 mg, 800 mg dose level, oral, one patient; read-out: highest Cmax achieved
Reported property: Cmax

So what's the measured Cmax for this one? CN1CCCC1=O [NMP, N-methyl-2-pyrrolidone] ~168 µM

* * *

Procedure details: Plasma pharmacokinetics of oral NMP by LCMSMS
Type: in vivo, human
Assay setup: human, plasma, po, 50 mg, oral 50 mg; individual profiles, patient RMH-01 occasions 1-5; plasma; read-out: AUC
Description: Blood samples were taken from patients before NMP and at one, two, four, eight and 24 h post dose. Plasma samples (20 μl) were prepared by adding five volumes of methanol containing deuterated internal standard. The samples were vortexed then centrifuged, and the supernatant was transferred to a vial and injected onto the LCMSMS. The LCMSMS system consisted of a Shimadzu UHPLC with a SCIEX 6500QTrap, a KinetexC18 (3 × 50 mm, 2.6 μm) column and using a gradient of 0.1% formic acid and acetonitrile. […]
Reported property: AUC (ng·h/mL)
Give a bare numeral; the unit ng·h/mL is implied.

Need AUC of "CN1CCCC1=O" , thanks. 2830
